// cell viability lookup, one value per entry
test system: NOMO1; assay: cell viability relative to DMSO control; higher = less cytotoxic; details: RPMI 5 mM glucose + 10% dialyzed FBS; 48 h; 0.0211 µM
Measure: cell viability

1. CNC(=O)c1ccc(N2C(=S)N(c3ccc(C#N)c(C(F)(F)F)c3)C(=O)C2(C)C)cc1F ... 113%
2. COc1ccccc1OCCNCC(O)COc1cccc2[nH]c3ccccc3c12 (stereo not given) ... 132%
3. Cc1cccc(N(C)C(=S)Oc2ccc3ccccc3c2)c1 ... 112%
4. O=C(Nc1ccc([N+](=O)[O-])cc1Cl)c1cc(Cl)ccc1O ... 90.9%
5. C[C@H]1[C@H](O)O[C@@H]2O[C@@]3(C)CC[C@H]4[C@H](C)CC[C@@H]1[C@@]24OO3 ... 85.7%
6. COCCCOc1ccnc(C[S+]([O-])c2nc3ccccc3[nH]2)c1C (stereo not given) ... 120%
7. NCCCCCC(=O)O ... 93.4%
8. COc1ccc(C(=O)CC(=O)c2ccc(C(C)(C)C)cc2)cc1 ... 106%
9. C[C@@H](NCc1cc2ccccc2[nH]1)c1cccc2ccccc12 ... 87.8%
10. C=CC(=O)Nc1cccc(Oc2nc(Nc3ccc(N4CCN(C)CC4)cc3OC)ncc2Cl)c1 ... 85.8%
